# System: Escherichia coli TOP10;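 note: peptides expressed intracellularly from a pBAD plasmid library in pooled LB shake-flask culture, induced with 0.3% L-arabinose, DNA abundance read by NGS, three biological replicates, DESeq2 with apeglm shrinkage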
# experimental_details: shrunken log2 fold change of peptide-encoding DNA abundance (4.5 h post-induction vs induction); higher = less antimicrobial activity (less host growth inhibition)
# test_parameters: time post-induction: 4.5 h; library: site-saturation at positions 5, 18, 19, 20
parameter: shrunken log2 fold change

RRIRNRPPRLPRPRPRPTIFPRP :: -0.248
RRIRHRPPRLPRPRPRPRFDPRP :: -0.163
RRIRTRPPRLPRPRPRPPAPPRP :: 0.592
RRIRMRPPRLPRPRPRPHADPRP :: 2
RRIRRRPPRLPRPRPRPARNPRP :: 3.18
RRIRTRPPRLPRPRPRPCHAPRP :: -0.0567
RRIRLRPPRLPRPRPRPPANPRP :: 0.592
RRIRKRPPRLPRPRPRPTSTPRP :: 0.489
RRIRWRPPRLPRPRPRPVEVPRP :: -0.0825
RRIRRRPPRLPRPRPRPNTGPRP :: -0.121
RRIRHRPPRLPRPRPRPIYKPRP :: -0.393
RRIRDRPPRLPRPRPRPYTLPRP :: -0.153
RRIRPRPPRLPRPRPRPNHPPRP :: -0.404
RRIRVRPPRLPRPRPRPHKDPRP :: -0.36
RRIRWRPPRLPRPRPRPNDFPRP :: -0.0161
